- measurement description: self-splicing fitness, log relative to wild type (ln ratio); higher = more splicing; Tetrahymena group I intron in knt gene, E. coli kanamycin selection, DiMSum; sequences stand for … in CUCUCU…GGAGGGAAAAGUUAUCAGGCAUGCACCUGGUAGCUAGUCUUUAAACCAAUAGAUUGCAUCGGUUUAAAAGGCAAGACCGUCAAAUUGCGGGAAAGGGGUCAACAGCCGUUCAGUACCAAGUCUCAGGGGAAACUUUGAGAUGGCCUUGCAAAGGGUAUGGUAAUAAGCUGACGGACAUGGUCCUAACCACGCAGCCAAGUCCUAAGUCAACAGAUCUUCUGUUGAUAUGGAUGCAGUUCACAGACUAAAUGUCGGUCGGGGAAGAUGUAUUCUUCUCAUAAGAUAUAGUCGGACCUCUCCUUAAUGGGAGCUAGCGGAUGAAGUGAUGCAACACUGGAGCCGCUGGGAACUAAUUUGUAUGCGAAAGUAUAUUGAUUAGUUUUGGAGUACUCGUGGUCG;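 further: selection with 25 µg/mL kanamycin versus none on LB agar overnight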
- settings: 37 °C
readout: self-splicing fitness (ln)
Write no unit; give the number alone.

Task item: // returns reported self-splicing fitness (ln) for input GGACAGCAAUAUUACGAAAA
Reply: -1.36

Task item: // returns reported self-splicing fitness (ln) for input GCACAGCAAUAUUACGACAC
Reply: 0.29

Task item: // returns reported self-splicing fitness (ln) for input ACAUAGCAAUAUUACGGAUG
Reply: -1.6

Task item: // returns reported self-splicing fitness (ln) for input GUCAAGCAAUAUUACGCAGU
Reply: -1.16

Task item: // returns reported self-splicing fitness (ln) for input CCAUAGCAAUAUUACGAGGG
Reply: -2.25

Task item: // returns reported self-splicing fitness (ln) for input UAACAGCAAUAUUACGGACG
Reply: 0.21

----------
- measurement description: self-splicing fitness, log relative to wild type (ln ratio); higher = more splicing; Tetrahymena group I intron in knt gene, E. coli kanamycin selection, DiMSum; sequences stand for … in CUCUCU…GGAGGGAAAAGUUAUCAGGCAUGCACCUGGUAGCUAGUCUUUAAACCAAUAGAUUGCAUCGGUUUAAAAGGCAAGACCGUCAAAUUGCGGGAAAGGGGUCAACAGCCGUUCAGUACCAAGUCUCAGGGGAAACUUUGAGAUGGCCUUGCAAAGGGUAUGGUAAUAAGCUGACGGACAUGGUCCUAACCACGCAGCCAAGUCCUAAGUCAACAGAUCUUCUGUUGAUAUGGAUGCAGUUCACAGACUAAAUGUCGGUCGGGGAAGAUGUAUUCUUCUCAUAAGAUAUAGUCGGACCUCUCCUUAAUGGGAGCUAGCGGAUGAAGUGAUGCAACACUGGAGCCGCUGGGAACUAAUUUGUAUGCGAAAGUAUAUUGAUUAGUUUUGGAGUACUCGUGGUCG
- settings: 30 °C
Decide using self-splicing fitness (ln): a value greater than or equal to -2 is true (1), a smaller one is false (0).

Task item: Could you please find out whether GUUGAGCAAUAUUACGGAGC has self-splicing fitness (ln) that meets -2 or exceeds it?
Reply: true (1)

Task item: Could you please find out whether GGUUAGCAAUAUUACGGCUG has self-splicing fitness (ln) that meets -2 or exceeds it?
Reply: true (1)

Task item: Could you please find out whether AGGAAGCAAUAUUACGCGCG has self-splicing fitness (ln) that meets -2 or exceeds it?
Reply: true (1)

Task item: Could you please find out whether CCGAAGCAAUAUUACGACCG has self-splicing fitness (ln) that meets -2 or exceeds it?
Reply: true (1)

Task item: Could you please find out whether UGACAGCAAUAUUACGCUUG has self-splicing fitness (ln) that meets -2 or exceeds it?
Reply: true (1)

Task item: Could you please find out whether UCACAGCAAUAUUACGGACA has self-splicing fitness (ln) that meets -2 or exceeds it?
Reply: true (1)

Task item: Could you please find out whether CUCUAGCAAUAUUACGGAUA has self-splicing fitness (ln) that meets -2 or exceeds it?
Reply: false (0)

Task item: Could you please find out whether GGAUAGCAAUAUUACGGGUA has self-splicing fitness (ln) that meets -2 or exceeds it?
Reply: false (0)

Task item: Could you please find out whether CGCGAGCAAUAUUACGGGUU has self-splicing fitness (ln) that meets -2 or exceeds it?
Reply: false (0)

Task item: Could you please find out whether UCCCAGCAAUAUUACGCAUU has self-splicing fitness (ln) that meets -2 or exceeds it?
Reply: false (0)

Task item: Could you please find out whether GUGCAGCAAUAUUACGUGCA has self-splicing fitness (ln) that meets -2 or exceeds it?
Reply: false (0)

Task item: Could you please find out whether AUCAAGCAAUAUUACGAAUA has self-splicing fitness (ln) that meets -2 or exceeds it?
Reply: false (0)

Task item: Could you please find out whether GAAAAGCAAUAUUACGGGCA has self-splicing fitness (ln) that meets -2 or exceeds it?
Reply: true (1)

Task item: Could you please find out whether GGAUAGCAAUAUUACGACUC has self-splicing fitness (ln) that meets -2 or exceeds it?
Reply: true (1)

Task item: Could you please find out whether CGCGAGCAAUAUUACGUUCU has self-splicing fitness (ln) that meets -2 or exceeds it?
Reply: false (0)

Task item: Could you please find out whether CCAUAGCAAUAUUACGACAU has self-splicing fitness (ln) that meets -2 or exceeds it?
Reply: false (0)

Task item: Could you please find out whether AAUAAGCAAUAUUACGGAGG has self-splicing fitness (ln) that meets -2 or exceeds it?
Reply: false (0)

Task item: Could you please find out whether CACGAGCAAUAUUACGUCGA has self-splicing fitness (ln) that meets -2 or exceeds it?
Reply: false (0)

Task item: Could you please find out whether GCAUAGCAAUAUUACGGUGC has self-splicing fitness (ln) that meets -2 or exceeds it?
Reply: false (0)

Task item: Could you please find out whether AACGAGCAAUAUUACGCGUC has self-splicing fitness (ln) that meets -2 or exceeds it?
Reply: false (0)

Task item: Could you please find out whether GACGAGCAAUAUUACGACGA has self-splicing fitness (ln) that meets -2 or exceeds it?
Reply: true (1)

Task item: Could you please find out whether UCACAGCAAUAUUACGAUCG has self-splicing fitness (ln) that meets -2 or exceeds it?
Reply: true (1)

Task item: Could you please find out whether GCACAGCAAUAUUACGCAGU has self-splicing fitness (ln) that meets -2 or exceeds it?
Reply: true (1)

Task item: Could you please find out whether AUUAAGCAAUAUUACGCCAG has self-splicing fitness (ln) that meets -2 or exceeds it?
Reply: false (0)

Task item: Could you please find out whether GCCCAGCAAUAUUACGAAGU has self-splicing fitness (ln) that meets -2 or exceeds it?
Reply: true (1)

Task item: Could you please find out whether GCAAAGCAAUAUUACGCAGU has self-splicing fitness (ln) that meets -2 or exceeds it?
Reply: false (0)

Task item: Could you please find out whether GCUCAGCAAUAUUACGGCGU has self-splicing fitness (ln) that meets -2 or exceeds it?
Reply: true (1)

Task item: Could you please find out whether UAACAGCAAUAUUACGUCAA has self-splicing fitness (ln) that meets -2 or exceeds it?
Reply: false (0)
